The reported measurements were obtained from ChEMBL document CHEMBL1201862.

Tested on: HL-60
Assay: NCI tumour cell line growth inhibition, 48 h
The source made the active and inactive calls. Cut-off read from the data, not from the text of the source: active = GI50 up to about 1.1 µM and inactive = higher.
Possible outcomes: yes (1) = active, no (0) = inactive

{"compound": "O=C1CCN(CCC(F)(F)C(F)(F)C(F)(F)C(F)(F)F)C(=S)N1", "measurement target": "HL-60", "class": "no (0)"}
{"compound": "COc1cc2nc(-c3ccccc3)cc(O)c2c(OC)c1OC", "measurement target": "HL-60", "class": "no (0)"}
{"compound": "COC(=O)[C@H](Cc1c[nH]c2ccccc12)NP(=O)(O)OCC1C=CC(n2cc(C)c(=O)[nH]c2=O)O1 (stereo not given in full)", "measurement target": "HL-60", "class": "no (0)"}
{"compound": "CC(C)=C1C2CC3(C)CCC2(C)CCC13.CC1=CCC2C3(C)CCC2(C(C)C)C1C3 (stereo not given)", "measurement target": "HL-60", "class": "no (0)"}
{"compound": "c1ccc(-c2nc3ccccc3nc2SCc2cccnc2)cc1", "measurement target": "HL-60", "class": "no (0)"}
{"compound": "OC[C@H]1N[C@H](CO)[C@@H](O)[C@H]1O", "measurement target": "HL-60", "class": "no (0)"}
{"compound": "CC(C)=CCNc1ncnc2c1ncn2CCC(=O)OC(C)(C)C", "measurement target": "HL-60", "class": "no (0)"}
{"compound": "O=C1N/C(=N/N=C/c2cccs2)N/C1=C\\c1ccco1", "measurement target": "HL-60", "class": "no (0)"}
{"compound": "CN1CC(S(=O)(=O)c2ccccc2)CC(S(=O)(=O)c2ccccc2)C1c1ccccc1 (stereo not given)", "measurement target": "HL-60", "class": "no (0)"}
{"compound": "Cc1ccc(C(=C2Sc3ccccc3S2)C(=C2Sc3ccccc3S2)c2ccc(C)s2)s1", "measurement target": "HL-60", "class": "no (0)"}
{"compound": "N=C(N)c1ccc(/N=N\\c2c(O)c(C(=O)Nc3ccccc3)cc3ccccc23)cc1", "measurement target": "HL-60", "class": "no (0)"}
{"compound": "O=C(O)c1cc(O)c2c(c1)Cc1cccc(O)c1C2=O", "measurement target": "HL-60", "class": "no (0)"}
{"compound": "CC(C)=CC(=O)Cc1nc2cc(C)c(C)cc2[nH]c1=O", "measurement target": "HL-60", "class": "no (0)"}
{"compound": "COc1ccc(C2=NN(C(=O)c3ccc(Cl)cc3)C(O)(c3cc(F)c(Cl)cc3Cl)C2)cc1OC (stereo not given)", "measurement target": "HL-60", "class": "yes (1)"}
{"compound": "CCCCCCCCCCCCCCCCCC(=O)NCCCNCCCNC(=O)CCCCCCCCCCCCCCCCC", "measurement target": "HL-60", "class": "no (0)"}
{"compound": "CC(C)(C)OC(=O)NC(CCC(=O)OCc1ccccc1)C(=O)NCCCO (stereo not given)", "measurement target": "HL-60", "class": "no (0)"}
{"compound": "COc1cc2nc(-c3cccs3)nc(Cl)c2cc1OC", "measurement target": "HL-60", "class": "no (0)"}
{"compound": "CC(C)=Cc1cc(C(=O)NCCNC(=O)c2cc(C=C(C)C)nc(NC#N)n2)nc(NC#N)n1", "measurement target": "HL-60", "class": "no (0)"}
{"compound": "CC(=O)Oc1ccn2nc(C)c(Br)c2c1Br", "measurement target": "HL-60", "class": "no (0)"}
{"compound": "CC(CCC(=O)O)C(=O)O (stereo not given)", "measurement target": "HL-60", "class": "no (0)"}
{"compound": "C=C1c2[nH]c3ccccc3c2CC(C(=O)O)N1C(O)c1ccc(S(=O)(=O)O)cc1 (stereo not given)", "measurement target": "HL-60", "class": "no (0)"}
{"compound": "O=C1C=CC(=NNc2ccccc2)C=CC1=O", "measurement target": "HL-60", "class": "no (0)"}
{"compound": "CN(C)c1ccc(/C=c2\\c3ccccc3n3c2cc(-c2ccccc2)[n+]3C)cc1", "measurement target": "HL-60", "class": "yes (1)"}
{"compound": "O=c1c2cc(I)ccc2nc(SCc2nnco2)n1Cc1ccccc1", "measurement target": "HL-60", "class": "no (0)"}
{"compound": "O=[N+]([O-])c1cccc2nc3ccccc3c(NCCCN3CCOCC3)c12", "measurement target": "HL-60", "class": "yes (1)"}
{"compound": "COC(=O)C1=CC2C(=O)c3ccccc3C1(c1ccccc1)N2C1CCCCC1 (stereo not given)", "measurement target": "HL-60", "class": "no (0)"}
{"compound": "O=C1C(N2CCOCC2)=C(Cl)C(=O)c2ncccc21", "measurement target": "HL-60", "class": "yes (1)"}
{"compound": "NS(=O)(=O)c1ccc(/N=N/c2ccc(O)c(O)c2)cc1", "measurement target": "HL-60", "class": "no (0)"}
{"compound": "COc1ccc(/C=C2/C[N+](C)(C)C/C(=C/c3ccc(OC)cc3)C2=O)cc1", "measurement target": "HL-60", "class": "no (0)"}
{"compound": "COC(=O)[C@]12CC[C@H]3CN(C(=O)OCc4ccccc4)[C@H]([C@H]31)[C@H](c1ccco1)N2S(=O)(=O)c1ccc(C)cc1", "measurement target": "HL-60", "class": "no (0)"}
